Here, each record is paired with measured IC50 of cytotoxicity (MTS viability), MDA-MB-468/hNotch3 cells, repeat 1 data.
target: full-length human Notch3 expressed on the cell surface (human, UniProt Q9UM47 40-2321); assay: cell-based or functional assay
Sequence (Q9UM47 40-2321): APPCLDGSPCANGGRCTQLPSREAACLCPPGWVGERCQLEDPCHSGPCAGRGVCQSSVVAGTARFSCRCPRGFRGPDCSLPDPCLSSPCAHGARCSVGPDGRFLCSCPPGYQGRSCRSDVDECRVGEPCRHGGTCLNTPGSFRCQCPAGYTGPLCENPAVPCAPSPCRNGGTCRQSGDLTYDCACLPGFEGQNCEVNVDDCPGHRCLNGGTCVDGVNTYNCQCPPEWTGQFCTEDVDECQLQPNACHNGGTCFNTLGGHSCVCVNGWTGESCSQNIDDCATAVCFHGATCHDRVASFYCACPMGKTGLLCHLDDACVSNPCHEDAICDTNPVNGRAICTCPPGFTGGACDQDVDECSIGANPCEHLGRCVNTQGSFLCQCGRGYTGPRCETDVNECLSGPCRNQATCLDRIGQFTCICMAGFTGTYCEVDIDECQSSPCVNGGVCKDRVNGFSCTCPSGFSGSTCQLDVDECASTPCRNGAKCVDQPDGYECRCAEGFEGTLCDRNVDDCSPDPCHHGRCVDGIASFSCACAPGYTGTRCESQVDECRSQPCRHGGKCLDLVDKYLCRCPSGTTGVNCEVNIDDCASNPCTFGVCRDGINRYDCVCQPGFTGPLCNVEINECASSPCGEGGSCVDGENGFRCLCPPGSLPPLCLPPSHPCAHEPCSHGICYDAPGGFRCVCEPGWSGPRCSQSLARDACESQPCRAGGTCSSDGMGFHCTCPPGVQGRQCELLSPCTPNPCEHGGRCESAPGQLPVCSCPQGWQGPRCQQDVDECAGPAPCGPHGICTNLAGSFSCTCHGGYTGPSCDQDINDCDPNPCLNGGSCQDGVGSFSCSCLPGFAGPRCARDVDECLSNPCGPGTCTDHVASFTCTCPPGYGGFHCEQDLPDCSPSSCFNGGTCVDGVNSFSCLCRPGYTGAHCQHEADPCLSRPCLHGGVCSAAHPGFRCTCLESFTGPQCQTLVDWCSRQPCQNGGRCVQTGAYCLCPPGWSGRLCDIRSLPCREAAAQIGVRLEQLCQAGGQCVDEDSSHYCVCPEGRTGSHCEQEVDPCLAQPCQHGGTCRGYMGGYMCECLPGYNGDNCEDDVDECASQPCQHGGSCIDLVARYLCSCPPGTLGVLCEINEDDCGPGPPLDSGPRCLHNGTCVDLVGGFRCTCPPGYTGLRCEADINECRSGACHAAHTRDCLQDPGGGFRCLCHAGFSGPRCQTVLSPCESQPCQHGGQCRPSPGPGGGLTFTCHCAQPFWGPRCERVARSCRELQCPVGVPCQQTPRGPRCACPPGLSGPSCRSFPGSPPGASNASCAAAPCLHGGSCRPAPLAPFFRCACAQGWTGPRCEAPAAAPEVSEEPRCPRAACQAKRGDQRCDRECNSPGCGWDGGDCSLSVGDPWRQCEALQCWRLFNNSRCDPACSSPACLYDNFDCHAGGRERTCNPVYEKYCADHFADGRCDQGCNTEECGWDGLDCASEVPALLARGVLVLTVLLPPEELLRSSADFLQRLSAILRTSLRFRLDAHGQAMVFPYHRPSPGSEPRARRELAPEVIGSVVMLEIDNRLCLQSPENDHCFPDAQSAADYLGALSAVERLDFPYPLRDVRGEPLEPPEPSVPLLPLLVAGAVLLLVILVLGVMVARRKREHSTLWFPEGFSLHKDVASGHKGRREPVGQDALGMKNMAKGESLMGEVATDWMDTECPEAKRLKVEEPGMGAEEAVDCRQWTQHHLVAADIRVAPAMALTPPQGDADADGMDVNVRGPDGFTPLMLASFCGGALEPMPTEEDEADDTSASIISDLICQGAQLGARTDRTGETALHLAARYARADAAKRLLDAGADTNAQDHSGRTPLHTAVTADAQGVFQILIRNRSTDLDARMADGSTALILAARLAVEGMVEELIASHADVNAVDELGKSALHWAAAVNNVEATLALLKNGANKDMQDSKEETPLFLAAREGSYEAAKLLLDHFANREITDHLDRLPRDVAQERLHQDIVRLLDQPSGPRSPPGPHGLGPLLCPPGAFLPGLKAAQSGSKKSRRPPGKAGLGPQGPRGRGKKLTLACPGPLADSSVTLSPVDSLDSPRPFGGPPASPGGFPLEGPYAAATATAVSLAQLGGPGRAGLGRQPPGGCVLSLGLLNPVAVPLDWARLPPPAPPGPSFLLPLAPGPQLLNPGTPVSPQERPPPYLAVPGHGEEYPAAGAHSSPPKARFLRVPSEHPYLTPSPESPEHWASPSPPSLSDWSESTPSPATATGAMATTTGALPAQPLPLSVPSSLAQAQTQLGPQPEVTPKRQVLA
Reply with just the number (in ng Ab/mL).

Worked cases, IC50 of cytotoxicity (MTS viability), MDA-MB-468/hNotch3 cells, repeat 1 given:
binder	observed
hu28-vc0101 (Notch3-28-v1010-hG1-(C)_mcValCitPABC-#54) (antibody, human IgG1, kappa, V domains shown, vc0101 linker-payload on cysteine residues after partial reduction; sites not specified, Antibody-drug conjugate of hu28) VH: EVQLVESGGGLVQPGGSLRLSCAASGFTFRDYGMTWVRQAPGKGLEWVAYISSGSNYIYYAEAVKGRFTISRDNAKNSLYLQMNSLRAEDTAVYYCARRGPFVLDAWGQGTLVTVSS VL: DIQMTQSPSSLSASVGDRVTITCKASQSINRYLHWYQQKPGKAPKLLIYNANGLQTGVPSRFSGSGSGTDFTLTISSLQPEDFATYYCLQHNTWPDTFGGGTKVEIKR	3.2
hu28-vc6780 (Notch3-28-v1010-hG1-(C)_mcValCitPABC-#112) (antibody, human IgG1, kappa, V domains shown, vc6780 linker-payload on cysteine residues after partial reduction; sites not specified, Antibody-drug conjugate of hu28) VH: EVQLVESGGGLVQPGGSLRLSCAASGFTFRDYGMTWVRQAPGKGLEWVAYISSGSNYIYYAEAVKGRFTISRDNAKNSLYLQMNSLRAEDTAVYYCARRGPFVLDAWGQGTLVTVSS VL: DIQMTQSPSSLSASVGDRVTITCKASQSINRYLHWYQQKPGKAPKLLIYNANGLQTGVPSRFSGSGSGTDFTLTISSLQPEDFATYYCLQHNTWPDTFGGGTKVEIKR	1.3
hu75-vc0101 (Notch3-75-v1913-hG1-(C)_mcValCitPABC-#54) (antibody, human IgG1, kappa, V domains shown, vc0101 linker-payload on cysteine residues after partial reduction; sites not specified, Antibody-drug conjugate of hu75) VH: EVQLVESGGGLVQPGGSLRLSCAASGYAFTDYWMTWVRQAPGKGLEWVAEISPNSGGTNFNEKFKGRFTISVDNAKNSLYLQMNSLRAEDTAVYYCARGEIRYNWFAYWGQGTLVTVSS VL: DIQMTQSPSSLSASVGDRVTITCKASQNVGNNIAWYQQKPGKAPKLLIYYASNRYTGVPSRFSGSGYGTDFTLTISSLQPEDFATYYCQRLYNSPFTFGGGTKVEIKR	37

We next turn to a different binder, shown below.
stdin: // IC50 of cytotoxicity (MTS viability), MDA-MB-468/hNotch3 cells, repeat 1 lookup, key: hu75-vc6780 (Notch3-75-v1913-hG1-(C)_mcValCitPABC-#112) (antibody, human IgG1, kappa, V domains shown, vc6780 linker-payload on cysteine residues after partial reduction; sites not specified, Antibody-drug conjugate of hu75) VH: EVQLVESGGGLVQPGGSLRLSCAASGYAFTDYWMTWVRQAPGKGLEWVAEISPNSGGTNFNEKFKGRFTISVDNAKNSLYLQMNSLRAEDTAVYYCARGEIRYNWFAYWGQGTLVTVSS VL: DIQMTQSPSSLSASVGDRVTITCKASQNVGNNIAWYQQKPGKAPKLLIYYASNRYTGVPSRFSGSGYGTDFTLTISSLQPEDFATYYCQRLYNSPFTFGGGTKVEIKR
stdout: 26
